- Tested on: rodent lifetime carcinogenesis bioassay, tumor incidence TD50
- Procedure Summary: carcinogenic potency in animals, long-term in vivo studies, CPDB compilation (AID 1745844)
- Details: rat; strain Fischer 344; males; in drinking water; site: Zymbal's gland; lesion: adenoma + adenoma, bilateral; dosed 58 weeks; study length 60 weeks
Quantity Kind: TD50 (mg/kg/day)
Please give a number only; it is taken to be in mg/kg/day.

Problem: For the molecule shown here, Cc1cc(-c2ccc(N)c(C)c2)ccc1N , give the reported TD50.
Result: 2.38

---

- Test system: rodent lifetime carcinogenesis bioassay, tumor incidence TD50
- Procedure Summary: carcinogenic potency in animals, long-term in vivo studies, CPDB compilation (AID 1745844)
- Details: monkey; strain Cynomolgus [Macaca fascicularis]; both sexes; several routes; site: kidney; lesion: hemangiosarcoma; dosed 825 weeks; study length 980 weeks
Quantity Kind: TD50 (mg/kg/day)
Please give a number only; it is taken to be in mg/kg/day.

Problem: Please state recorded TD50 (tested on rodent lifetime carcinogenesis bioassay, tumor incidence TD50) of CNNCc1ccc(C(=O)NC(C)C)cc1
Result: 23.5

Entry source: PubChem BioAssay AID1745844
